- TESTED_TARGET: T1, TNFR2-His (Sino Biological, 10417-H08H, NP_001057.1 Met1-Asp257, with multi-histidine tag expressed on … (human, UniProt P20333 23-257))
- T1 construct: range 1-257; Bought protein; also called recombinant human TNFR2 protein; TNFR2-His antigen; not shown: C-terminal multi-histidine tag
- T1 sequence (looked up): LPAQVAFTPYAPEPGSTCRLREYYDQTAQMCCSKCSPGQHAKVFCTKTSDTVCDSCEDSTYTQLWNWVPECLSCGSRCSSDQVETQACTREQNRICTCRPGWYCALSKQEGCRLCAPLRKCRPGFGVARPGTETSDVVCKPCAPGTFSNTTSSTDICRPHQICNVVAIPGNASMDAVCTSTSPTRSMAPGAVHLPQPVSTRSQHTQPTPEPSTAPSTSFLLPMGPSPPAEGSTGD
- ASSAY_EXPLANATION: BLI, antibody captured on AHC probe, TNFR2-His in solution
# Lookup of reported koff keyed by entry
Express the result in s⁻¹ but write the number alone.

See these solved cases before continuing.
INSERT INTO results (binder, quantity_measured, reading_unit, measured_value) VALUES
  ('11G2huVH1 + huVL3(P07271) (antibody, V domains shown, Humanized 11G2) VH: QVQLVQSGAEVKKPGASVKLSCKASGYTFITYDINWVRQAPGQGLEWIGWIYPRDGNTQFNENFKGKATMTVDESTSTAYMEVRSLRSDDTAVYYCARGDRDYGYFDVWGQGTTVTVSS VL: DIQMTQSPSSLSASVGDRVTITCQASQDISNYLNWYQQKPGKAPKLLIYFKSKLETGVPSRFSGSGSGTDFTFTISSLQPEDIATYYCQQGNTLPLTFGGGTKLEIK', 'koff', 's⁻¹', 0.00251),
  ('11G2huVH5 + huVL3(P07275) (antibody, V domains shown, Humanized 11G2) VH: QVQLVQSGAEVKKPGASVKVSCKASGYTFITYDINWVRQATGQGLEWIGWIYPRDGNTQYAQKFQGRVTMTRNTSISTAYMELSSLRSEDTAVYYCARGDRDYGYFDVWGQGTTVTVSS VL: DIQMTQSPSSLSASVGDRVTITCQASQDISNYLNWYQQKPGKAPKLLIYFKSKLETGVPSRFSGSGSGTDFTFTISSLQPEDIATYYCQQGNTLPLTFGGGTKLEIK', 'koff', 's⁻¹', 0.00302);

// below: koff requested for another binder
# koff of 11G2huVH4 + huVL2(P07269) (antibody, V domains shown, Humanized 11G2) VH: QVQLVQSGAEVKKPGASVKVSCKASGYTFITYDINWVRQAPGQGLEWIGWIYPRDGNTQYAQKFQGRVTMTTDTSTSTAYMELRSLRSDDTAVYYCARGDRDYGYFDVWGQGTTVTVSS VL: DIQMTQSPSSLSASVGDRVTITCRASQDISNYLNWYQQKPGKAPKLLIYFKSKLHSGVPSRFSGSGSGTDFTLTISSLQPEDFATYYCQQGNTLPLTFGGGTKLEIK = 0.00379
